Tested on: SF-295 CNS
Assay: NCI tumour cell line growth inhibition, 48 h
So I've got a bunch of compounds here, and I need their TGI values.
Give bare numbers, in µM.

CN(C)C(=O)c1cc2cnc(Nc3ccc(-c4csc5c(=O)cc(N6CCNCC6)oc45)cc3)nc2n1C1CCCC1 : 10.7

For each listed entry, give its TGI.
1. O=C1c2cc3c(cc2[C@@H]2[C@H]1c1ccc([N+](=O)[O-])cc1C(=O)N2CCCCl)OCO3
2. COc1cc2c(cc1Oc1ccc(OC)c3c1CC1c4c(cc(OC)c(OC)c4-3)CCN1C)CC1c3c(cc(OC)c(OC)c3-2)CCN1C (stereo not given)
3. S=C(N/N=C(/c1ccccc1)c1ccccn1)Nc1ccc(Cl)cc1

Output:
1. 11.4
2. 6.11
3. 11.3
